meta.source: patent US20080058213A1

# Tested on: wheat
# protocol: Foliage treatment test for upland field (Test Example 3): phytotoxicity to wheat; note: key: 0: normal growth; 1: little damaged; 2: low damaged; 3: medium damaged; 4: serious damaged; 5: complete killed
# Type: in vivo
# assayContext: dose 5 g ai/a; foliage treatment at 1.0-2.0 leaf stage of southern crabgrass; examined after 3 weeks
measurementLabel: Phytotoxicity wheat
Hey, just send me the number, nothing else.

| compound | Phytotoxicity wheat |
| --- | --- |
| COCC(=Cc1ccc(F)c(C(F)(F)F)c1)c1nc2cc(F)c(F)cc2o1 [Compound 126] | 1 |
| CSCC(=Cc1cccc(C(F)(F)F)c1)c1nc2cc(C(F)(F)F)ccc2o1 [Compound 82] | 0 |
| CCOC/C(=C\c1cccc(C(F)(F)F)c1)c1nc2cc(Cl)ccc2o1 [Compound 11] | 1 |
| CCSCC(=Cc1cccc(C(F)(F)F)c1)c1nc2cc(C(F)(F)F)ccc2o1 [Compound 84] | 0 |
| FC(F)C(F)(F)COCC(=Cc1cccc(C(F)(F)F)c1)c1nc2cc(C(F)(F)F)ccc2o1 [Compound 87] | 1 |
| COC/C(=C\c1cccc(C(F)(F)F)c1)c1nc2cc(Cl)ccc2o1 [Compound 3] | 1 |
| COCC(=Cc1ccc(Cl)c(C(F)(F)F)c1)c1nc2cc(Cl)ccc2o1 [Compound 9] | 1 |

Continue with the compound presented below.
GET Phytotoxicity wheat | system: wheat | item: FC(F)(F)COC/C(=C\c1cccc(C(F)(F)F)c1)c1nc2cc(C(F)(F)F)ccc2o1 [Compound 85]
1

* * *

Form field: Herbicidal Effect Monochoria vaginalis (one value per entry).
# System: Monochoria (Monochoria vaginalis)
# protocol: Weed control test for paddy field (Test Example 1): Monochoria
# Assay type: in vivo
# assayContext: dose 5 g ai/a; paddy pots, treated at 1.0 leaf stage of barnyard grass; examined after 3 weeks

Completed entries (count: 5):
| compound | targetDesc | Herbicidal Effect Monochoria vaginalis |
| --- | --- | --- |
| COCC(=Cc1ccc(F)c(C(F)(F)F)c1)c1nc2cc(F)c(F)cc2o1 | Monochoria (Monochoria vaginalis) | 5 (100%) |
| CCOC/C(=C\c1cccc(C(F)(F)F)c1)c1nc2cc(Cl)ccc2o1 | Monochoria (Monochoria vaginalis) | 5 (100%) |
| COCC(=Cc1cccc(C(F)(F)F)c1)c1nc2cc(C(F)(F)F)ccc2o1 | Monochoria (Monochoria vaginalis) | 5 (100%) |
| CCOCC(=Cc1cccc(C(F)(F)F)c1)c1nc2cc(F)cc(F)c2o1 | Monochoria (Monochoria vaginalis) | 5 (100%) |
| COCC(=Cc1cccc(C(F)(F)F)c1)c1nc2cc(Br)ccc2o1 | Monochoria (Monochoria vaginalis) | 5 (100%) |

GET Herbicidal Effect Monochoria vaginalis | system: Monochoria (Monochoria vaginalis) | item: FC(F)(F)COC/C(=C\c1cccc(C(F)(F)F)c1)c1nc2cc(C(F)(F)F)ccc2o1
5 (100%)

GET Herbicidal Effect Monochoria vaginalis | system: Monochoria (Monochoria vaginalis) | item: CCOCC(=Cc1cccc(C(F)(F)F)c1)c1nc2cc(C(F)(F)F)ccc2o1
5 (100%)

* * *

# System: southern crabgrass
# protocol: Foliage treatment test for upland field (Test Example 3): southern crabgrass
# Assay type: in vivo
# assayContext: dose 2.5 g ai/a; foliage treatment at 1.0-2.0 leaf stage of southern crabgrass; examined after 3 weeks
measurementLabel: Herbicidal Effect southern crabgrass

Completed entries (count: 4):
| compound | targetDesc | reading |
| --- | --- | --- |
| CSCC(=Cc1cccc(C(F)(F)F)c1)c1nc2cc(C(F)(F)F)ccc2o1 | southern crabgrass | 4 (80%-less than 100%) |
| CCOCC(=Cc1cccc(C(F)(F)F)c1)c1nc2cc(C(F)(F)F)ccc2o1 | southern crabgrass | 5 (100%) |
| CCSCC(=Cc1cccc(C(F)(F)F)c1)c1nc2cc(C(F)(F)F)ccc2o1 | southern crabgrass | 4 (80%-less than 100%) |
| FC(F)(F)COC/C(=C\c1cccc(C(F)(F)F)c1)c1nc2cc(C(F)(F)F)ccc2o1 | southern crabgrass | 5 (100%) |

Continue with the compound presented below.
Supply measured Herbicidal Effect southern crabgrass of COCC(=Cc1cccc(C(F)(F)F)c1)c1nc2cc(C(F)(F)F)ccc2o1 in your reply.
5 (100%)
